Test: NCI Yeast Anticancer Drug Screen. Data for the rad50EPP+ strain (AID 151);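 note: 0% = growth of vehicle-treated control cultures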
Conditions: S. cerevisiae rad50 mutant strain, at 11.0 µM
Method: Growth inhibition of yeast strains with defined genetic alterations is measured as a screen for potential anti-cancer activity. Selected strains with alterations in DNA damage repair or cell cycle control were exposed to compounds and growth inhibition was measured relative to vehicle treated controls. The strain used in this assay is rad50EPP+
About 79,000 compounds went through this panel and 15% of them were active in at least one assay; those are over-represented in the sample as a whole. Active and inactive are the calls of the source. Cut-off read from the data, not from the text of the source: active = growth inhibition above about 70%; inactive = the rest.
Valid outcomes are listed here; reply with one: T for active, F for inactive

Worked examples follow.
CCC(=O)Oc1c(Cl)cc(Cl)c2ccccc12 | F
BrCc1cccc2ccc3cccc(CBr)c3c12 | F
CC(C)c1cc(C(C)C)c(O)c(C([O-])[O-])c1.CC(C)c1cc(C(C)C)c(O)c(C([O-])[O-])c1.CC(C)c1cc(C(C)C)c(O)c(C([OH2+])[OH2+])c1.CC(C)c1cc(C(C)C)c(O)c(C([OH2+])[OH2+])c1.[Cu+2].[Cu+2].[OH3+].[OH3+] | F
CNC(=O)OCc1c(COC(=O)NC)c(-c2ccc(-c3ccccc3)cc2)n(C)c1C | F
c1ccc2c(c1)C(=NCCCN1CCCCCC1)c1cccn1-2 | F

In: Kindly provide the recorded test outcome for the following molecule: COc1ccc(OC)c2cc3ccccc3cc12
Out: F

In: Kindly provide the recorded test outcome for the following molecule: CCc1ncnc2cc(OCC3CO3)c(OC)cc12 (stereo not given)
Out: F

In: Kindly provide the recorded test outcome for the following molecule: CC(=O)OCC(=O)C1(O)CCC2C3CCC4CCCCC4(C)C3CCC21C (stereo not given)
Out: F

In: Kindly provide the recorded test outcome for the following molecule: CCN(CC)CCN1C(=O)c2cccc3cc(OC)cc(c23)C1=O
Out: F

In: Kindly provide the recorded test outcome for the following molecule: CCCN(CCC)CC(O)c1cc(-c2ccc(Cl)cc2)nc2c(C)c(Cl)ccc12 (stereo not given)
Out: T

###

Assay: NCI Yeast Anticancer Drug Screen. Data for the CLN2oe strain (AID 163);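 note: 0% = growth of vehicle-only control cultures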
Settings: S. cerevisiae CLN2oe strain, at 33.0 µM, hits give high values
Compounds without any hit were thinned out: in the full panel of roughly 79,000, 15% have a hit.
Classification field. Basis: growth inhibition. Definitions: class 1 (below 10%), class 2 (10% to below 60%), class 3 (60% or more)

Worked examples follow.
CCOC(=O)c1cnc2cc(C(F)(F)F)ccc2c1N=[N+]=[N-] | class 3
CCN(CC)C(=S)N/N=C(/C)c1cccc(/C(C)=N\NC(=S)N(CC)CC)n1 | class 2
COC1=CC(=O)C2C(C1=O)C(c1ccc(Cl)cc1)[C@@H]2C (some centres not stated) | class 3
CC(=O)Nc1ccc2c(c1)C(=Nc1ccc(C(=O)O)cc1)c1ccccc1-2 | class 2
C=CCC1=C(C)C(OC(=O)/C=C/c2ccccc2)CC1=O (configuration not stated) | class 2
CCCCCCCCNC(=O)C1=C(C)NC(C)=C(C(=O)NCCCCCCCC)C1 | class 1
CC(/C=C/c1ccc2c(c1)OCO2)[N+](=O)[O-] (configuration not stated) | class 3
N/C(=N\OC(=O)NC(Cl)=C(Cl)Cl)c1cc(C(F)(F)F)cc(C(F)(F)F)c1 | class 3
O=Nc1c(NO)ccc2nn(-c3ccccc3)nc12 | class 3
C=C1CC(Cn2cc(Br)c(=O)[nH]c2=O)(c2ccc(-c3ccccc3)cc2)OC1=O (configuration not stated) | class 2

In: In plain terms, what class is COC(=O)c1cc(-c2ccc(C)cc2)[nH]c(=O)c1C#N ?
Out: class 1

In: In plain terms, what class is CC[n+]1ccc2c(C)c3[nH]c4ccc(O)cc4c3c(C)c2c1 ?
Out: class 2

In: In plain terms, what class is CCC(=O)Oc1c(Cl)cc(Cl)c2ccccc12 ?
Out: class 1

In: In plain terms, what class is Cc1ccc(NC(=O)/C(Cl)=C(\Cl)C(=O)O)cc1C ?
Out: class 3

In: In plain terms, what class is Cc1ccc(NN(NC(=O)OC(C)C)C(=O)OC(C)C)cc1 ?
Out: class 1

In: In plain terms, what class is Cc1ccc(S(=O)(=O)NNC(=S)Nc2cccc3ccccc23)cc1 ?
Out: class 1

In: In plain terms, what class is CC(=O)OC1CCC2(C)C(=CCC3C4CCC5(OC6CC(C)CN(C(C)=O)C6C5C)C(C)=C4C(=O)C32)C1 (configuration not stated) ?
Out: class 3

In: In plain terms, what class is Nc1ccn(C2OC(CO)C3[O][Sn]([c]4ccccc4)([c]4ccccc4)[O]C32)c(=O)n1 (configuration not stated) ?
Out: class 2

In: In plain terms, what class is COc1ccccc1N=NC(C(=O)c1ccccc1)C(=O)c1ccccc1 ?
Out: class 3

In: In plain terms, what class is Cc1c(C(Cc2ccccc2N(C)C(=O)/C=C\C(=O)O)c2c[nH]c3ccccc23)c2ccccc2n1C (configuration not stated) ?
Out: class 1

In: In plain terms, what class is CCCCCCCCCCNC(=O)OCC ?
Out: class 2

###

Experiment: NCI Yeast Anticancer Drug Screen. Data for the rad50 strain (AID 155);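 note: 0% = growth of vehicle-only cultures of the same strain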
Conditions: S. cerevisiae rad50 strain growth inhibition; at 100.0 µM; hits give high values
Experimental: Growth inhibition of yeast strains with defined genetic alterations is measured as a screen for potential anti-cancer activity. Selected strains with alterations in DNA damage repair or cell cycle control were exposed to compounds and growth inhibition was measured relative to vehicle treated controls. The strain used in this assay is rad50
The panel holds about 79,000 compounds, 15% with a hit somewhere; the sample as a whole holds those more often.
REPORTED_METRIC: growth inhibition (%)
One number for each entry, in %.

Study these solved cases before continuing.
CC(C)OC(=O)Oc1ccccc1OC(=O)OC(C)C | -1
OC1CCCc2c1cc1ccc3cccc4ccc2c1c34 (configuration not stated) | 88
O=C(NNc1ccnc2cc(Cl)ccc12)/C(=C\c1ccccc1Cl)NC(=O)c1ccccc1 | 30
COC1=CC(=O)C(C2(OC(C)C)OC(=O)C(Cl)=C2Cl)=CC1=O (configuration not stated) | 99
CC(C)/C(Cl)=N\OC(=O)Nc1cccc(Cl)c1 | 3
Cc1cc2c(cc1C(=O)CCC(=O)O)CC1(C2)Cc2cc(C)c(C(=O)CCC(=O)O)cc2C1 | 42
CN(C)CCn1c2c3ccccc3ccc2c2oc(=O)c3ccccc3c21 | 92
CNC1C(OC2C(OC3C(O)C(O)C(N=C(N)N)C(O)C3N=C(N)N)OC(C)C2(O)CO)OC(CO)C(O)C1O (configuration not stated) | -11

Quick request: growth inhibition for each listed item, please.
1. Fc1ccc(NC(=S)SCc2ccc(Cl)c(Cl)c2)cc1F
2. O=c1ssc2ncccc12
3. Oc1ccc2ccccc2c1C(c1ccc(Cl)cc1)c1c(O)ccc2ccccc12

Out:
[97, 99, 89]

Quick request: growth inhibition for each listed item, please.
1. O=S(=O)(CCCl)c1ccccc1Cl
2. COc1cc(C(=O)/C=C/c2ccccc2O)ccc1O
3. c1ccc2c(c1)NC(NC1Nc3ccccc3N1)N2
4. CC1(C)[C@@H]2CC[C@]1(C)[C@H](OC(=O)CSC#N)C2
5. CN(Cc1cnc2nc(N)nc(N)c2n1)c1ccc(C(=O)N[C@@H](CCC(=O)O)C(=O)O)cc1

Out:
1. 98
2. 98
3. 40
4. 96
5. 85

###

Experiment: NCI Yeast Anticancer Drug Screen. Data for the mec2-1 strain (AID 157)
Conditions: S. cerevisiae mec2-1 strain, at 11.0 µM, hits give high values
This is part of a sample that, as a whole, favours compounds with a hit. Of some 79,000 tested, about 15% had one in any assay.
I'd be grateful if you could share measured growth inhibition for these entries.
Answers are plain numbers, in %.

Study these solved cases before continuing.
CCCCCCCCCCCCCCCCCCOCC(O)COP(=O)(O)OCC1OC(n2cc(F)c(=O)[nH]c2=O)CC1O (stereo unspecified) | 74
NC(=S)N/N=C\c1nccc2ccccc12 | 97
COc1cc2ccc(/C=C\[N+](=O)[O-])cc2cc1OC | 38

Quick request: growth inhibition for each listed item, please.
1. CC(=O)OC1CCC2(C)C(=CCC3C4CCC5(OC6CC(C)CN(C(C)=O)C6C5C)C(C)=C4C(=O)C32)C1 (stereo unspecified)
2. Cn1c(N)nc(-c2ccc(Cl)cc2)c1SSc1c(-c2ccc(Cl)cc2)nc(N)n1C
3. CC(=O)ON1C(=O)c2cccc3cccc(c23)C1=O

Out:
[3, 30, 95]

###

Test: NCI Yeast Anticancer Drug Screen. Data for the rad52 strain (AID 147);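 note: 0% = growth of vehicle-treated control cultures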
Settings: S. cerevisiae rad52 mutant growth inhibition; at 3.7 µM; hits give high values
Experimental: Growth inhibition of yeast strains with defined genetic alterations is measured as a screen for potential anti-cancer activity. Selected strains with alterations in DNA damage repair or cell cycle control were exposed to compounds and growth inhibition was measured relative to vehicle treated controls. The strain used in this assay is rad52
About 79,000 compounds went through this panel and 15% of them were active in at least one assay; those are over-represented in the sample as a whole.
REPORTED_METRIC: growth inhibition (%)
One number for each entry, in %.

NC(=O)NN=C(CS)CS | 4
CNC(=O)OCc1c(COC(=O)NC)c(-c2ccc(Cl)c(Cl)c2)n2c1CCC2 | -27
Cc1ccc(S(=O)(=O)Oc2cc(Cl)c(Cl)cc2Cl)cc1 | 4
O=C(Cc1csc2[n+]1C(=O)/C(=C/c1ccc(Cl)cc1)S2)Nc1ccccc1 | 4
COC(=O)c1cc(-c2ccc(C)cc2)[nH]c(=O)c1C#N | 0

Quick request: growth inhibition for each listed item, please.
1. O=C(/C=C\c1ccc(Cl)cc1Cl)c1cccs1
2. CC(C)C1=CC2=C[C@H](O)[C@H]3C(C)(C)CCC[C@]3(C)C2=C(O)C1=O
3. O=C(COC(=O)c1cc(O)c(O)c(O)c1)c1ccc(-c2ccccc2)cc1

Out:
-3
38
2

Just for reference, PubChem BioAssay (NCI) is where these values come from.
